Target: FAK (Homo sapiens, UniProt Q05397)
Construct: homozygous knock-in of a HiBiT tag (Promega Corporation, Madison, WI) to the C-terminus of the FAK gene in its natural genomic locus; endogenous in cells; host or cells: JHH-4-FAK-HiBiT clone d01 (CRISPR-Cas9 knock-in at the endogenous locus)
Sequence (Q05397 whole entry): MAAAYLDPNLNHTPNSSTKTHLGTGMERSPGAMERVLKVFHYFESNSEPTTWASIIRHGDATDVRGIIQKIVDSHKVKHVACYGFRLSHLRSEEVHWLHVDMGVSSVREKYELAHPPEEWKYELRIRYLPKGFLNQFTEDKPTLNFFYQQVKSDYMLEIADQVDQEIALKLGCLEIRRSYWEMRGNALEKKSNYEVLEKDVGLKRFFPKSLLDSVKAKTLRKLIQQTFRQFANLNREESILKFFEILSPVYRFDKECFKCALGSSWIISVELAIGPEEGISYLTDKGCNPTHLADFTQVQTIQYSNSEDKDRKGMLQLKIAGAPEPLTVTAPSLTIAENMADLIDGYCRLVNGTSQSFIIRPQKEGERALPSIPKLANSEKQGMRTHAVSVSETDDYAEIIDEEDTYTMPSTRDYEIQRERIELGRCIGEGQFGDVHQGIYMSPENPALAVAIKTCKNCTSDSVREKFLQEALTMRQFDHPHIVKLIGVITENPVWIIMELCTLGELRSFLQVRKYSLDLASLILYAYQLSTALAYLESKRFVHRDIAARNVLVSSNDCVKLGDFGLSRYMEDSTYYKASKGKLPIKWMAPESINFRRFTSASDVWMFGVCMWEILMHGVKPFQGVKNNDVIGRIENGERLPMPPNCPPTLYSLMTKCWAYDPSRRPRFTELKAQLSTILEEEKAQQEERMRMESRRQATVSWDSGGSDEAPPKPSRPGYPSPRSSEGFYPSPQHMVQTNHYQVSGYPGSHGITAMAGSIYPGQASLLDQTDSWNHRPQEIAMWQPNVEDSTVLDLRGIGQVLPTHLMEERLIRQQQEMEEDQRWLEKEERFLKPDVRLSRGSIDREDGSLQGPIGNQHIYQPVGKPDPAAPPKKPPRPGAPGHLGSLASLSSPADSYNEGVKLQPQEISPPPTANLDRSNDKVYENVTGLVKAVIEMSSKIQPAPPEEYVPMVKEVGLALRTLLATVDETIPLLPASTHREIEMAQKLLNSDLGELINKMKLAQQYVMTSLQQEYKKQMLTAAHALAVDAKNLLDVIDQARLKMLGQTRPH
Test: FAK-HiBiT Degradation Assay
Format: cell-based
Settings: lower limit of the four parameter fit (value A); Ymax derived using DMSO control; JHH-4-FAK-HiBiT cells, two hours
Class (by FAK HiBiT Ymin) -- low (below 9), medium (9 to below 10), high (10 or more)

Kindly identify the class of O=C1CCC(N2Cc3cc(Cn4cnc5c(-c6ccc(C(F)(F)F)cc6Cl)cc(N6CC(F)C6)nc54)ccc3C2=O)C(=O)N1 (stereo not shown) [Example 19] .
low

Also O=C1CCC(N2Cc3cc(Cn4ncc5c(-c6ncc(F)cc6Cl)cc(N6CC[C@H](O)C6)nc54)ccc3C2=O)C(=O)N1 (stereo partly shown) [Example 100] ?
medium

Request: CCOc1ccc(-c2c(F)c(N3CC[C@](C)(O)C3)nc3c2cnn3Cc2ccc3c(c2)CN([C@H]2CCC(=O)NC2=O)C3=O)c(Cl)c1 [Example 67]
medium

---

Would you mind telling me the reported CAL-51 Prolif Ymin of each entry?
Test system: CAL-51 cells
Experiment: CAL-51 Cell Proliferation Assay
Assay type: cell-based
Details: minimal percent of DMSO control observed in the concentrations tested (Ymin-obs), 120 hours
Numbers only.

// solved cases for CAL-51 Prolif Ymin follow
- compound: "O=C1CC[C@H](N2Cc3cc(Cn4ncc5c(-c6ncc(C7COC7)cc6Cl)cc(N6CC(F)C6)nc54)ccc3C2=O)C(=O)N1 (single isomer, unassigned)"
  CAL-51 Prolif Ymin: 28.68
- compound: "CN(c1cc(-c2ncc(F)cc2Cl)c2cnn(Cc3ccc4c(c3)CN(C3CCC(=O)NC3=O)C4=O)c2n1)C(F)(F)F (stereo not shown)"
  CAL-51 Prolif Ymin: 39.88
- compound: "CCOc1cnc(-c2cc(N3CC(F)C3)nc3c2cnn3Cc2ccc3c(c2)CN(C2CCC(=O)NC2=O)C3=O)c(Cl)c1 (stereo not shown)"
  CAL-51 Prolif Ymin: 28.22
- compound: "N#Cc1cnc(-c2cc(N3CC[C@H](O)C3)nc3c2cnn3Cc2ccc3c(c2)CN([C@H]2CCC(=O)NC2=O)C3=O)c(F)c1"
  CAL-51 Prolif Ymin: 75.47

// each listed compound needs a value for CAL-51 Prolif Ymin
1. CCOc1cnc(-c2cc(N3CC(F)C3)nc3c2cnn3Cc2ccc3c(c2)CN([C@H]2CCC(=O)NC2=O)C3=O)c(C)c1
2. O=C1CC[C@@H](N2Cc3cc(Cn4ncc5c(-c6ncc(C(F)(F)F)cc6Cl)c(F)c(N6CC(F)C6)nc54)ccc3C2=O)C(=O)N1 (single isomer, unassigned)
3. N#Cc1ccc(-c2c(F)c(N3CC(F)C3)nc3c2cnn3Cc2ccc3c(c2)CN(C2CCC(=O)NC2=O)C3=O)c(F)c1 (stereo not shown)
4. Cc1nc2c(-c3ncc(F)cc3Cl)cc(N3CC(F)C3)nc2n1Cc1ccc2c(c1)CN(C1CCC(=O)NC1=O)C2=O (stereo not shown)
5. O=C1CC[C@H](N2Cc3cc(Cn4ncc5c(-c6ncc(C(F)(F)F)cc6Cl)cc(NC6CCOCC6)nc54)ccc3C2=O)C(=O)N1
6. O=C1CC[C@H](N2Cc3cc(Cn4ncc5c(-c6ncc(C(F)(F)F)cc6Cl)cc(NCCF)nc54)ccc3C2=O)C(=O)N1
7. CN(c1cc(-c2ncc(C(F)(F)F)cc2Cl)c2cnn(Cc3ccc4c(c3)CN(C3CCC(=O)NC3=O)C4=O)c2n1)C1CCOCC1 (stereo not shown)

[29.74, 24.33, 26.68, 23.72, 65.79, 57.23, 47.74]

Below are some compounds; for each one, tell me its CAL-51 Prolif Ymin.
1. O=C1CC[C@H](N2Cc3cc(Cn4ncc5c(-c6ncc(C(F)(F)F)cc6Cl)cc(N6CCOCC6)nc54)ccc3C2=O)C(=O)N1
2. O=C1CC[C@H](N2Cc3cc(Cn4ncc5c(-c6ncc(F)cc6Cl)cc(N6CC(F)C6)nc54)ccc3C2=O)C(=O)N1
3. O=C1CC[C@H](N2Cc3cc(Cn4ncc5c(-c6ccc(OCC(F)(F)F)cc6Cl)cc(N6CC(F)C6)nc54)ccc3C2=O)C(=O)N1
4. COc1cnc(-c2cc(N3CC(F)C3)nc3c2cnn3Cc2ccc3c(c2)CN(C2CCC(=O)NC2=O)C3=O)c(Cl)c1 (stereo not shown)
5. CC(C)Nc1cc(-c2ncc(C(F)(F)F)cc2Cl)c2cnn(Cc3ccc4c(c3)CN([C@H]3CCC(=O)NC3=O)C4=O)c2n1
6. O=C1CCC(N2Cc3cc(Cn4ncc5c(-c6ncc(Cl)cc6Cl)cc(N6CC(F)C6)nc54)ccc3C2=O)C(=O)N1 (stereo not shown)
7. O=C1CC[C@H](N2Cc3cc(Cn4ncc5c(-c6ncc(F)cc6F)cc(N6CC[C@H](O)C6)nc54)ccc3C2=O)C(=O)N1

1. 59.06
2. 30.14
3. 22.49
4. 23.38
5. 30.48
6. 21.28
7. 78.23

For each of the compounds below, state CAL-51 Prolif Ymin.
1. Cc1cnc(-c2cc(N3CC(F)C3)nc3c2cnn3Cc2ccc3c(c2)CN(C2CCC(=O)NC2=O)C3=O)c(C)c1 (stereo not shown)
2. O=C1CCC(N2Cc3cc(Cn4ncc5c(-c6ncccc6Cl)cc(N6CC(F)C6)nc54)ccc3C2=O)C(=O)N1 (stereo not shown)
3. C[C@]1(O)CCN(c2cc(-c3ncc(C(F)(F)F)cc3Cl)c3cnn(Cc4ccc5c(c4)CN([C@H]4CCC(=O)NC4=O)C5=O)c3n2)C1
4. O=C1CCC(N2Cc3cc(Cn4ncc5c(-c6ncc(C(F)(F)F)cc6Cl)cc(N[C@H]6CCOC6)nc54)ccc3C2=O)C(=O)N1 (stereo partly shown)

35.10
24.94
35.36
89.52

Can you give me CAL-51 Prolif Ymin for all of these, one by one?
1. COc1cc(F)cnc1-c1cc(N2CC(F)C2)nc2c1cnn2Cc1ccc2c(c1)CN(C1CCC(=O)NC1=O)C2=O (stereo not shown)
2. CN(C)c1cc(-c2ncc(C(F)(F)F)cc2Cl)c2cnn(Cc3ccc4c(c3)CN(C3CCC(=O)NC3=O)C4=O)c2n1 (stereo not shown)
3. Cc1cc(Cl)cnc1-c1c(F)c(N2CC(F)C2)nc2c1cnn2Cc1ccc2c(c1)CN(C1CCC(=O)NC1=O)C2=O (stereo not shown)

[76.29, 29.57, 19.81]

All values here come from patent US20260078119A1.
